Field: ΔTm. Provide a value for each of the molecules that follow.
- Tested on: Quadruplex DNA
- TEST: Stabilization of 5'-FAM/3'-TAMRA labeled K-Ras G4 quadruplex DNA (unknown origin) assessed as change in melting temperature at 10 microM measured after 15 mins by FRET assay
- Assay type: nucleic-acid assay

q: Which value of ΔTm has been reported for Cc1ccc([N+](=O)[O-])c2c(NCCCN3CCN(CCCNc4ccc([N+](=O)[O-])c5[nH]c6ccccc6c(=O)c45)CC3)c3ccccc3nc12 in the records?
a: 21.6 °C

q: Similarly, CN(CCCNc1c2ccccc2nc2cccc([N+](=O)[O-])c12)CCCNc1ccc([N+](=O)[O-])c2[nH]c3ccccc3c(=O)c12 ?
a: 27.4 °C

q: Quick one: O=c1c2cc(O)ccc2[nH]c2c([N+](=O)[O-])ccc(NCCCN3CCN(CCCNc4c5ccccc5nc5cccc([N+](=O)[O-])c45)CC3)c12
a: 26.6 °C

q: Likewise for O=c1c2ccccc2[nH]c2c([N+](=O)[O-])ccc(NCCCN3CCN(CCCNc4c5ccccc5nc5cccc([N+](=O)[O-])c45)CC3)c12 ?
a: 25.1 °C

q: Also need CN(CCCNc1c2ccccc2nc2cccc([N+](=O)[O-])c12)CCCNc1ccc([N+](=O)[O-])c2[nH]c3ccc(O)cc3c(=O)c12 , thanks.
a: 29.7 °C

q: Repeat with COc1ccc2c(c1)c(=O)c1c(NCCCN3CCN(CCC(N)c4ccc5nc6ccccc6cc5c4[N+](=O)[O-])CC3)ccc3ncn2c31 (centres undefined)
a: 28.3 °C

q: Please do the same for NC(CCN1CCN(CCCNc2ccc3nnn4c5ccccc5c(=O)c2c34)CC1)c1ccc2nc3ccccc3cc2c1[N+](=O)[O-] (centres undefined) as well.
a: 26.6 °C

q: # repeat for Cc1cc(C(N)CCN2CCN(CCCNc3ccc4ncn5c6ccccc6c(=O)c3c45)CC2)c([N+](=O)[O-])c2cc3ccccc3nc12 (centres undefined)
a: 19.9 °C

q: Again, but for Cc1cc(NCCCN(C)CCCNc2ccc3ncn4c5ccccc5c(=O)c2c34)c([N+](=O)[O-])c2cc3ccccc3nc12
a: 23.7 °C

q: // repeat for Cc1ccc([N+](=O)[O-])c2c(NCCCN3CCN(CCCNc4ccc5ncn6c7ccc(O)cc7c(=O)c4c56)CC3)c3ccccc3nc12 and report
a: 18.8 °C

q: Now give it for O=c1c2ccccc2n2cnc3ccc(NCCNc4c5ccccc5nc5cccc([N+](=O)[O-])c45)c1c32 too.
a: 19.5 °C

q: And for Cc1ccc(NCCNCCNc2c3ccccc3nc3cccc([N+](=O)[O-])c23)c2c(=O)c3ccccc3[nH]c12 ?
a: 28.1 °C

q: Another molecule to look at: Cc1cc(NCCCN(C)CCCNc2ccc3ncn4c5ccc(O)cc5c(=O)c2c34)c([N+](=O)[O-])c2cc3ccccc3nc12
a: 10.7 °C

q: Another: Cc1ccc(NCCCN2CCN(CCCNc3c4ccccc4nc4cccc([N+](=O)[O-])c34)CC2)c2c(=O)c3cc(O)ccc3[nH]c12
a: 27.6 °C

* * *

Record form. Attribute: IC50. Fill in for each entry.
- Tested on: PANC-1
- TEST: Cytotoxicity against human PANC-1 cells assessed as reduction in cell viability measured after 72 hrs by SRB assay
- Format: functional, cell-based
- MEASUREMENT CONTEXT: PANC-1, 72 h
All answers are understood in nM, so give the number only.

q: Suppose we examine the compound NC(CCN1CCN(CCCNc2ccc3nnn4c5ccccc5c(=O)c2c34)CC1)c1ccc2nc3ccccc3cc2c1[N+](=O)[O-] (stereo unspecified) ; what IC50 value has been reported?
a: 138

q: # iterate: Cc1nc2ccc(NCCCN3CCN(CCC(N)c4ccc5nc6ccccc6cc5c4[N+](=O)[O-])CC3)c3c(=O)c4cc(O)ccc4n1c23 (stereo unspecified)
a: 39

q: Cool, now Cc1cc(NCCCN(C)CCCNc2ccc3ncn4c5ccccc5c(=O)c2c34)c([N+](=O)[O-])c2cc3ccccc3nc12
a: 98

q: Another compound to check: Cc1ccc(NCCNCCNc2c3ccccc3nc3cccc([N+](=O)[O-])c23)c2c(=O)c3ccccc3[nH]c12
a: 212

q: And Cc1cc(C(N)CCN2CCN(CCCNc3ccc4ncn5c6ccccc6c(=O)c3c45)CC2)c([N+](=O)[O-])c2cc3ccccc3nc12 (stereo unspecified) ?
a: 65

q: Request: COc1ccc2c(c1)c(=O)c1c(NCCCN3CCN(CCC(N)c4ccc5nc6ccccc6cc5c4[N+](=O)[O-])CC3)ccc3ncn2c31 (stereo unspecified)
a: 40

q: Would you mind doing CN(CCCNc1c2ccccc2nc2cccc([N+](=O)[O-])c12)CCCNc1ccc([N+](=O)[O-])c2[nH]c3ccc(O)cc3c(=O)c12 as well?
a: 32

q: And what about the compound Cc1ccc([N+](=O)[O-])c2c(NCCCN3CCN(CCCNc4ccc([N+](=O)[O-])c5[nH]c6ccccc6c(=O)c45)CC3)c3ccccc3nc12 ?
a: 130

q: Item: Cc1ccc([N+](=O)[O-])c2c(NCCCN(C)CCCNc3ccc([N+](=O)[O-])c4[nH]c5ccccc5c(=O)c34)c3ccccc3nc12
a: 110

q: What do you have for Cc1ccc(NCCCNCCCNc2c3ccccc3nc3cccc([N+](=O)[O-])c23)c2c(=O)c3ccccc3[nH]c12 ?
a: 377

q: Let us now turn to O=c1c2cc(O)ccc2n2cnc3ccc(NCCCN4CCN(CCCNc5c6ccccc6nc6cccc([N+](=O)[O-])c56)CC4)c1c32
a: 24

Where these numbers come from: ChEMBL document CHEMBL4765407
